Residues, ends and D or L forms follow the SMILES beside them. *: point of attachment. Cbz = O=C(OCc1ccccc1)*
attributeMeasured: melting point

Field: example entries. Status: answers known.
compound="CCC1COc2c(Cc3ccc(C(C)C)cc3)c(C)c(NC(=O)CC(C)(C)C)c(C)c21 (stereo not given)" result="156 to 157 °C"
compound=Cc1nc(Cl)c(C)c(Cl)n1 result="46 to 47 °C"
compound=CCC(CC)c1ccc(Cl)c2nc3n(c12)CCCCN3c1ccc(OC(F)(F)F)cc1Br result="114 to 117 °C"

Which value of melting point has been reported for CCCCn1c(=O)n(CCC(C)(O)C#CCN(CCC)CCC)c(=O)c2c1ncn2CCC (stereo not given) in the records? 101 °C

Which value of melting point has been reported for CC(C)(C)C(=O)OC1CC(C)(C)N(OC(=O)C(C)(C)C)C(C)(C)C1 in the records? 43 to 46 °C

Which value of melting point has been reported for CCOCCNC(=O)n1sc(OCC)nc1=O in the records? < 50 °C

Which value of melting point has been reported for CCNC(=O)C1CCCN1C(=O)C(C)NC(=O)C(C)NC(=O)OCc1ccccc1 (stereo not drawn) (Cbz-Ala-Ala-Pro-NHEt; configuration not given here) in the records? 139 to 140 °C

Which value of melting point has been reported for CCOC(=O)N1CCN(C(C#N)c2ccc(OC)c(OC)c2OC)CC1 (stereo not given) in the records? 138 to 139 °C

Which value of melting point has been reported for CCOC(=O)C1CCCCN1C(=O)Cl (stereo not given) in the records? 121 to 123 °C

Which value of melting point has been reported for O=c1ccn(-c2ccc3[nH]c(=O)c(=O)[nH]c3c2)cc1 in the records? > 300 °C
